From: patent US4639541A

Item-by-item account of degree of activity (fungal toxicity with respect to fungal spores)
- System: Colletotrichum coffeanum
- PROTOCOL_DETAILS: Spore germination test, Colletotrichum coffeanum
- Assay type: cell-based
- RUN_PARAMETERS: 2 ppm, 48 hours, 20° C., vs untreated control
Output spec: scalar in %, unitless text.

For orientation, consider the following solved cases.
O=C(Cc1cc([N+](=O)[O-])c(Cl)c([N+](=O)[O-])c1Cl)OCC#CI    60
O=C(Cc1ccc(Cl)cc1)OCC#CI    90

QUERY: Could you share which degree of activity (fungal toxicity with respect to fungal spores) value was measured for `O=C(Cc1ccc([N+](=O)[O-])cc1)OCC#CI` ?
RESULT: 90

QUERY: Now the molecule O=C(OCC#CI)C(Cl)c1ccccc1 (centres unmarked)
RESULT: 90

QUERY: Now the molecule `O=C(Cc1c(Cl)cccc1Cl)OCC#CI`
RESULT: 95

QUERY: Now the molecule `O=C(Cc1cc([N+](=O)[O-])c(Cl)c([N+](=O)[O-])c1)OCC#CI`
RESULT: 100

QUERY: Now the molecule O=C(OCC#CI)C(Br)c1ccc(Cl)cc1 (centres unmarked)
RESULT: 100

QUERY: Now the molecule `O=C(Cc1cc([N+](=O)[O-])c(Cl)cc1Cl)OCC#CI`
RESULT: 100

---

- Test system: Alternaria tenuis
- PROTOCOL_DETAILS: Spore germination test, Alternaria tenuis
- Assay type: cell-based
- RUN_PARAMETERS: 1 ppm, 48 hours, 20° C., vs untreated control
Item-by-item account of degree of activity (fungal toxicity with respect to fungal spores)
Output spec: scalar in %, unitless text.

For orientation, consider the following solved cases.
O=C(Cc1c(Cl)cccc1Cl)OCC#CI    95
O=C(Cc1ccc(Cl)cc1)OCC#CI    80
O=C(OCC#CI)C(Br)c1ccc(Cl)cc1 (centres unmarked)    100
O=C(Cc1cc([N+](=O)[O-])c(Cl)cc1Cl)OCC#CI    100

QUERY: Could you share which degree of activity (fungal toxicity with respect to fungal spores) value was measured for O=C(OCC#CI)C(Cl)c1ccccc1 (centres unmarked) ?
RESULT: 80

---

- Test system: Fusarium nivale
- PROTOCOL_DETAILS: Spore germination test, Fusarium nivale
- Assay type: cell-based
- RUN_PARAMETERS: 1 ppm, 48 hours, 20° C., vs untreated control
Item-by-item account of degree of activity (fungal toxicity with respect to fungal spores)
Output spec: scalar in %, unitless text.

For orientation, consider the following solved cases.
O=C(OCC#CI)C(Cl)c1ccccc1 (centres unmarked)    60
O=C(Cc1c(Cl)cccc1Cl)OCC#CI    100
O=C(Cc1ccc(Cl)cc1)OCC#CI    60
O=C(Cc1cc([N+](=O)[O-])c(Cl)cc1Cl)OCC#CI    100

# context switch: different compound, same degree of activity (fungal toxicity with respect to fungal spores)
QUERY: Could you share which degree of activity (fungal toxicity with respect to fungal spores) value was measured for O=C(OCC#CI)C(Br)c1ccc(Cl)cc1 (centres unmarked) ?
RESULT: 100

---

- Test system: Colletotrichum coffeanum
- PROTOCOL_DETAILS: Spore germination test, Colletotrichum coffeanum
- Format: cell-based
- RUN_PARAMETERS: 1 ppm, 48 hours, 20° C., vs untreated control
MEASURED_QUANTITY: degree of activity (fungal toxicity with respect to fungal spores)
# output: numeric value plus its unit

QUERY: Reported degree of activity (fungal toxicity with respect to fungal spores) for Colletotrichum coffeanum, given `O=C(Cc1ccc(Cl)cc1)OCC#CI` ?
RESULT: 80%

QUERY: Now the compound `O=C(Cc1cc([N+](=O)[O-])c(Cl)cc1Cl)OCC#CI`
RESULT: 100%

QUERY: Now the compound O=C(OCC#CI)C(Br)c1ccc(Cl)cc1 (centres unmarked)
RESULT: 100%

QUERY: Now the compound `O=C(Cc1c(Cl)cccc1Cl)OCC#CI`
RESULT: 95%

QUERY: Now the compound O=C(OCC#CI)C(Cl)c1ccccc1 (centres unmarked)
RESULT: 80%

---

- System: Verticillium dahliae
- PROTOCOL_DETAILS: Spore germination test, Verticillium dahliae
- Format: cell-based
- RUN_PARAMETERS: 4 ppm, 48 hours, 20° C., vs untreated control
Item-by-item account of degree of activity (fungal toxicity with respect to fungal spores)

O=C(Cc1cc([N+](=O)[O-])c(Cl)cc1Cl)OCC#CI    40%
O=C(OCC#CI)C(Cl)c1ccccc1 (centres unmarked)    95%
O=C(OCC#CI)C(Br)c1ccc(Cl)cc1 (centres unmarked)    100%

QUERY: Could you share which degree of activity (fungal toxicity with respect to fungal spores) value was measured for `O=C(Cc1ccc(Cl)cc1)OCC#CI` ?
RESULT: 95%

QUERY: Now the molecule `O=C(Cc1c(Cl)cccc1Cl)OCC#CI`
RESULT: 100%

---

- Test system: Fusarium nivale
- PROTOCOL_DETAILS: Spore germination test, Fusarium nivale
- Type: cell-based
- RUN_PARAMETERS: 4 ppm, 48 hours, 20° C., vs untreated control
MEASURED_QUANTITY: degree of activity (fungal toxicity with respect to fungal spores) (%)
Output spec: scalar in %, unitless text.

O=C(Cc1cc([N+](=O)[O-])c(Cl)cc1Cl)OCC#CI    100
O=C(Cc1ccc(Cl)cc1)OCC#CI    90

QUERY: Could you share which degree of activity (fungal toxicity with respect to fungal spores) value was measured for `O=C(Cc1c(Cl)cccc1Cl)OCC#CI` ?
RESULT: 100

QUERY: Now the compound O=C(OCC#CI)C(Br)c1ccc(Cl)cc1 (centres unmarked)
RESULT: 100

QUERY: Now the compound O=C(OCC#CI)C(Cl)c1ccccc1 (centres unmarked)
RESULT: 90
